Provenance of the data: paper PMC9482650

Biological target: T1, LIN7C, Q9NUP9
T1 sequence (Q9NUP9 88-185, limits assumed, looked up): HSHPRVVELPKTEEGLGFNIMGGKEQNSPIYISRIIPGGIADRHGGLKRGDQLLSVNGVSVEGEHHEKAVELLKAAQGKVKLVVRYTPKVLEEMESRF
Assay: holdup assay
Parameters: key: below the threshold = too weak to quantify, mostly under pKd 3.1 to 4
Conditions: plain residues with an end cap or a label only (N-terminal biotin on a linker: ado-ado)
property-measured: pKd

• ELSATVTTDC [TRIP6, Q15654] = below the threshold
• NTANRRTTPV [CACNG2, Q9Y698] = below the threshold
• EKCGKEFSEF [PRKACA, P17612] = below the threshold
• QSGLYESEEL [MYOT, Q9UBF9] = 3.58
• KPGKGSETVV [FZD4, Q9ULV1] = 4.08

Endpoint output: pKd of PTPDLPQTRV [KLHDC7A, Q5VTJ3] . Value?
3.49

Likewise for SRSVVESDEL [MYPN, Q86TC9] ?
below the threshold

Likewise for EIPAQSPTCV [FZD10, Q9ULW2] ?
below the threshold
